Molecular target: CYP11B2 (aldosterone synthase) (Homo sapiens, UniProt P19099)
Construct: the NCI-H295R cells have CYP11B2 (aldosterone synthase) and CYP11B1 (steroid 11-hydroxylase)
Sequence (P19099 25-503): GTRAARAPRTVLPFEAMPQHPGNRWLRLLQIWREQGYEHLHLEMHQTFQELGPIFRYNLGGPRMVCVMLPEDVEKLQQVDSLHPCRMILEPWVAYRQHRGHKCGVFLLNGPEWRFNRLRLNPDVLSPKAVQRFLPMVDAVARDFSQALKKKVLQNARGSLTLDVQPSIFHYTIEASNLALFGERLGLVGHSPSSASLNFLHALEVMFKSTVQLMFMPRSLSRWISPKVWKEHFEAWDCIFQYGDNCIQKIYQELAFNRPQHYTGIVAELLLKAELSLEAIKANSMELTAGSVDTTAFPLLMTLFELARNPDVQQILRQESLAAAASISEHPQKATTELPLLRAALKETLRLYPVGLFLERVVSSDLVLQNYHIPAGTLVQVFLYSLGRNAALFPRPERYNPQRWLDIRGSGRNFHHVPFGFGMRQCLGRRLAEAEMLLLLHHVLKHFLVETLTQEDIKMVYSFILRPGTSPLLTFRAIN
Assay: Aldosterone cell secretion in NCI-H295R cells
Conditions: 24 hours incubation with cell stimulant
Here, each record is paired with measured IC50 data.
# output: numeric value plus its unit

INSERT INTO results (molecule, metric, value_measured) VALUES
  ('CCS(=O)(=O)NC(C)c1cncc(-c2c(C#N)c3ccc(Cl)cc3n2C)c1 (racemic) [216 (one enantiomer)]', 'IC50', '32 nM');

// next item, IC50 requested
Incoming: Need IC50 of CCS(=O)(=O)NC(C)c1cncc(-c2c(C#N)c3ccc(Cl)cc3n2C)c1 (racemic) [216 (other enantiomer)] , thanks.
Outgoing: 35 nM

Numbers sourced from patent US9242963B2.
